Attribution: ChEMBL document CHEMBL1129526

# protocol-details: Solubility of compound in water
# Assay type: physicochemical
# stated-conditions: water; read-out: S
Task for the reader: assign each of the following compounds its reported solubility.

(Q) Find the recorded solubility belonging to Cc1cc2c(o1)c(C)cc1c(C)cc(=O)oc12 and report it.
(A) 1460 µg/mL

(Q) Field request: solubility | item: Cc1cc2c(o1)c(C)cc1c(C)cc(=O)n(C)c12
(A) 4700 µg/mL

====

Please go through the items and note down their Relative activity.
# Test system: Ehrlich
# protocol-details: Compound was tested for the inhibition of DNA synthesis in Ehrlich cells by UV -A Irradiation relative to furoquinolinone
# Format: functional, Mus musculus
API doc: respond with a numeric literal and nothing else, no unit.

(Q) API: value(readout=Relative activity, system=Ehrlich) for record Cc1cc2c(o1)c(C)cc1c(C)cc(=O)n(C)c12
(A) 77.6

(Q) # value lookup — system Ehrlich, readout Relative activity, item COc1c2occc2cc2ccc(=O)oc12
(A) 1

(Q) Param readout= Relative activity; system= Ehrlich; entry= Cc1oc2c(C)cc3c(C)cc(=O)[nH]c3c2c1C ; returns value.
(A) 102.6

(Q) // lookup Relative activity | system=Ehrlich | key= Cc1cc2c(o1)c(C)cc1c(C)cc(=O)oc12
(A) 4.14
